Tested on: Chordin-like protein 2 (CHRDL2)
Assay: compounds binding chordin-like 2 – biochemical, small-molecule microarray, 635 nm fluorescence, primary screen (AID 1126);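 note: printed compound slides probed with Chrdl2 protein at 4 µg/mL for 1 h at 4 C; score merges 667 nm emission intensity with signal to noise over three replicate slides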
Settings: fluorescence 635 nm, higher = more signal
# binarize composite z-score: threshold 0.2 inclusive, high side fulfilled, low side not fulfilled

{"SMILES_TEXT": "NC(=O)NCC#Cc1ccc2c(c1)[C@]1(C(=O)N2)[C@H](c2ccc(OCCO)cc2)N2[C@H](c3ccccc3)[C@H](c3ccccc3)OC(=O)[C@H]2[C@@H]1C(=O)N1CCN(c2ncccn2)CC1", "TEST_TARGET": "Chordin-like protein 2 (CHRDL2)", "CLASS": "fulfilled"}
{"SMILES_TEXT": "COCC(=C=CC[C@@H](O)c1ccccc1OCCO)C[C@@H](O)COCc1ccccc1", "TEST_TARGET": "Chordin-like protein 2 (CHRDL2)", "CLASS": "not fulfilled"}
{"SMILES_TEXT": "O=C1O[C@H](c2ccccc2)[C@H](c2ccccc2)N2[C@H]1[C@@H](C(=O)N1CCN(c3ncccn3)CC1)[C@]1(C(=O)Nc3ccc(C#CCCO)cc31)[C@H]2c1ccccc1OCCO", "TEST_TARGET": "Chordin-like protein 2 (CHRDL2)", "CLASS": "fulfilled"}
{"SMILES_TEXT": "CCOC(=O)C[C@H]1[C@H](OC(=O)c2ccc(C(=O)c3ccccc3)cc2)[C@@H](NC(=O)C2CCCCC2)c2cc(OCCCO)ccc2N1C(=O)Cc1ccc(OC)cc1", "TEST_TARGET": "Chordin-like protein 2 (CHRDL2)", "CLASS": "fulfilled"}
{"SMILES_TEXT": "COC(=O)C(CC#Cc1ccc2c(c1)[C@]1(C(=O)N2)[C@H](C(=O)N2CCc3cc(OC)c(OC)cc3C2)[C@H]2C(=O)O[C@H](c3ccccc3)[C@H](c3ccccc3)N2[C@@H]1c1ccc(O)cc1)C(=O)OC", "TEST_TARGET": "Chordin-like protein 2 (CHRDL2)", "CLASS": "fulfilled"}

---

Assay: probe aEGFR binding to arrayed compounds – biochemical, biotinylated probe, 635/667 nm fluorescence, primary screen (AID 1097);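 note: probe is a biotinylated anti-EGFR antibody binding compounds printed on slides; score combines fluorescence near 667 nm and signal to noise of each spot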
Conditions: small-molecule microarray, higher = more signal
param class (str): category from composite z-score; see ranges low interval (below -0.05), middle interval (-0.05 to below 0.2), high interval (0.2 or more)

{"COMPOUND": "COc1ccc(C#Cc2ccc3c(c2)[C@]2(C(=O)N3)[C@H](C(N)=O)[C@H]3C(=O)O[C@H](c4ccccc4)[C@H](c4ccccc4)N3[C@@H]2c2ccc(O)cc2)cc1", "CLASS": "high interval"}
{"COMPOUND": "[N-]=[N+]=Nc1ccccc1C[C@]1(C(=O)NCCN2CCOCC2)N=C(c2ccc(OCCCO)cc2)O[C@H]1c1ccccc1N=[N+]=[N-]", "CLASS": "high interval"}
{"COMPOUND": "Cc1cc(C)c(C(O)C2C=CC3C(=O)N(c4ccccc4)C(=O)C3N2Nc2ccccc2)c(C)c1 (stereo not given)", "CLASS": "middle interval"}
{"COMPOUND": "COc1ccc(CCNC(=O)[C@@H]2c3ccccc3C(=O)N(Cc3ccccc3C(F)(F)F)[C@H]2c2ccc(CO)cc2)cc1", "CLASS": "low interval"}
{"COMPOUND": "N#Cc1ccc(NN2C(C(O)c3ccccc3)C=CC3C(=O)N(c4ccccc4)C(=O)C32)cc1 (stereo not given)", "CLASS": "low interval"}
{"COMPOUND": "COc1ccc(C(=O)Nc2ccc(CN3C(=O)[C@@]4(O[C@@H](CC(=O)N5Cc6ccccc6C[C@H]5CO)[C@H]([Si](C)(C)c5ccc(OC)cc5)[C@H]4C)c4ccccc43)cc2)cc1", "CLASS": "low interval"}
{"COMPOUND": "CCCC=C(CCC)[C@@H](NC(=O)Cc1ccccc1)c1ccc(C(=O)OC)cc1", "CLASS": "high interval"}
{"COMPOUND": "C[C@H]1ON(c2ccccc2)[C@@H](c2ccccc2)[C@@H]1C(=O)N1C(=O)OC[C@@H]1c1ccccc1", "CLASS": "middle interval"}
{"COMPOUND": "COCCCNC(=O)[C@@]1(Cc2ccccc2)COC(c2ccc(OCCCO)cc2)=N1", "CLASS": "low interval"}
{"COMPOUND": "C=CCNC(=O)[C@H]1[C@@H]2C(=O)O[C@@H](c3ccccc3)[C@@H](c3ccccc3)N2[C@@H](c2ccc(O)cc2)[C@]12C(=O)N(C(=O)OCCOC)c1ccc(C#CC3(O)CCCCCC3)cc12", "CLASS": "middle interval"}
